# TEST TARGET: PIK3CD (Human) (UniProt O00329)
# Sequence (O00329 whole entry, looked up): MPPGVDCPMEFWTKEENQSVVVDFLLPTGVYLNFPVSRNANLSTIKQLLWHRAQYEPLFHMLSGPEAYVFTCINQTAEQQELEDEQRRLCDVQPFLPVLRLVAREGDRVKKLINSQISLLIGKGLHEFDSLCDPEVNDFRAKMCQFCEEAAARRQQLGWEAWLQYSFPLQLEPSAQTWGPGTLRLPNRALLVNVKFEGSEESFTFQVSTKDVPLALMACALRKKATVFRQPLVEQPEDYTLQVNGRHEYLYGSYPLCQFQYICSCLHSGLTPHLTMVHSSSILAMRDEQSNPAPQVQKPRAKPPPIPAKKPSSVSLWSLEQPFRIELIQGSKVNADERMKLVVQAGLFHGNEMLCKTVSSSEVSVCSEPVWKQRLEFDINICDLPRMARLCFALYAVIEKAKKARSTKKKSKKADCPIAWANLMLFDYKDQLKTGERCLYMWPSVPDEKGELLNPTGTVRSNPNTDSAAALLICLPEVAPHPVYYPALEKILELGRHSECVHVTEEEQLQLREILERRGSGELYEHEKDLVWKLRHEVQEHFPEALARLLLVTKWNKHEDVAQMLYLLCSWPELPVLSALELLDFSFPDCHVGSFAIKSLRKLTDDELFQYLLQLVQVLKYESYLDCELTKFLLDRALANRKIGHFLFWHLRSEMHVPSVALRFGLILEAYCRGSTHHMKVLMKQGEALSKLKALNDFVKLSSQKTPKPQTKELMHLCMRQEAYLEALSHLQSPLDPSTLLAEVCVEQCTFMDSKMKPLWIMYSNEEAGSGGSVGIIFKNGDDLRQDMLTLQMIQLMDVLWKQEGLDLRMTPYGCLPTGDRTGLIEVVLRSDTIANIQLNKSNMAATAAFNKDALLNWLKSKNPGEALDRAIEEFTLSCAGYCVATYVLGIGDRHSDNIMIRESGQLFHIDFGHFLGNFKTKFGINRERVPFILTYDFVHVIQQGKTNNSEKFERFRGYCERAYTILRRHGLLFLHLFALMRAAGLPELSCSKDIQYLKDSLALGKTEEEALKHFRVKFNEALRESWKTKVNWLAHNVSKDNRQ
# PROCEDURE TEXT: Evaluation of PIK3CD inhibitors on Elastase Release in Human PMN Cells
# EC50 per entry
MEASUREMENT LABEL: EC50 (nM)

1) Cc1cccc2nc(CSc3ncnc4[nH]cnc34)n(-c3ccccc3Cl)c(=O)c12 :: 200
2) CCCCn1c(CSc2ncnc3[nH]cnc23)nc2ccccc2c1=O :: 5000
3) Nc1ncnc2c1ncn2Cc1nc2cccc(Cl)c2c(=O)n1-c1ccccc1-c1ccccc1 :: 10500
4) O=c1c2cc(F)ccc2nc(CSc2ncnc3[nH]cnc23)n1-c1ccccc1Cl :: 1000
5) Nc1ncnc2c1ncn2Cc1nc2cccc(Cl)c2c(=O)n1-c1ccccc1Cl :: 300
6) O=c1c2c(F)cccc2nc(CSc2ncnc3[nH]cnc23)n1-c1ccccc1Cl :: 1300
